- Experiment Notes: Plasma pharmacokinetics of SU5416 and metabolites in Phase I patients (HPLC UV)
- Type: in vivo, human
- Measurement Conditions: human, plasma, iv, 110 mg m^−2, individual patients, twice weekly i.v. infusion, dose 110 mg m^−2, cycle 1inj2; read-out: CL (observed) (converted)
Property Label: clearance (mL/min)
# number only, unit mL/min dropped from output

Quickly give me recorded clearance for Cc1cc(C)c(/C=C2\C(=O)Nc3ccccc32)[nH]1 [SU5416]
767

====

- Experiment Notes: Plasma pharmacokinetics of SU5416 and metabolites in Phase I patients (HPLC UV)
- Assay type: in vivo, human
- Measurement Conditions: human, plasma, iv, 48 mg m^−2, individual patients, twice weekly i.v. infusion, dose 48 mg m^−2, cycle 2inj8
Property Label: AUC(0-t) (ng·h/mL)
# number only, unit ng·h/mL dropped from output

Quickly give me recorded AUC(0-t) for Cc1cc(C)c(/C=C2\C(=O)Nc3ccccc32)[nH]1 [SU5416]
498

====

- Experiment Notes: Plasma pharmacokinetics of SU5416 and metabolites in Phase I patients (HPLC UV)
- Assay type: in vivo, human
- Measurement Conditions: human, plasma, iv, 85 mg m^−2, individual patients, twice weekly i.v. infusion, dose 85 mg m^−2, cycle 2inj8; read-out: CL (observed) (converted)
Property Label: clearance (mL/min)
# number only, unit mL/min dropped from output

Quickly give me recorded clearance for Cc1cc(C)c(/C=C2\C(=O)Nc3ccccc32)[nH]1
1470

====

- Experiment Notes: Plasma pharmacokinetics of SU5416 and metabolites in Phase I patients (HPLC UV)
- Assay type: in vivo, human
- Measurement Conditions: human, plasma, iv, 110 mg m^−2, individual patients, twice weekly i.v. infusion, dose 110 mg m^−2, cycle 1inj8
Property Label: AUC(0-t) (ng·h/mL)
# number only, unit ng·h/mL dropped from output

Quickly give me recorded AUC(0-t) for Cc1cc(C)c(/C=C2\C(=O)Nc3ccccc32)[nH]1
3800

====

- Experiment Notes: Plasma pharmacokinetics of SU5416 and metabolites in Phase I patients (HPLC UV)
- Assay type: in vivo, human
- Measurement Conditions: human, plasma, iv, 65 mg m^−2, individual patients, twice weekly i.v. infusion, dose 65 mg m^−2, cycle 1inj8; read-out: CL (observed) (converted)
- Procedure: Samples were taken prior to treatment infusion, 15 min into the infusion, at completion of the infusion and then at 5, 10, 20, 30, 45, 60, 120 and 240 min following the infusion. […] Pharmacokinetic analysis was performed using a fully validated HPLC UV method ([Stopeck et al, 2002]). […] Following centrifugation, drying and reconstitution in 200 μl mobile phase, 20 μl were analysed by HPLC UV. […] Pharmacokinetic parameters were evaluated using WinNonLin Software®.
Property Label: clearance (mL/min)
# number only, unit mL/min dropped from output

Quickly give me recorded clearance for Cc1cc(C)c(/C=C2\C(=O)Nc3ccccc32)[nH]1
1230

====

- Experiment Notes: Plasma pharmacokinetics of SU5416 and metabolites in Phase I patients (HPLC UV)
- Assay type: in vivo, human
- Measurement Conditions: human, plasma, iv, 85 mg m^−2, individual patients, twice weekly i.v. infusion, dose 85 mg m^−2, cycle 2inj8; read-out: T1/2λz (converted)
Property Label: half-life (min)
# number only, unit min dropped from output

Quickly give me recorded half-life for Cc1cc(C)c(/C=C2\C(=O)Nc3ccccc32)[nH]1
44.4
